Assay: qHTS assay to identify small molecule antagonists of the thyroid receptor (TR) signaling pathway (AID 743065); further: nearly all actives have a fitted effect of over 55% in size
Details: GH3.TRE-Luc, T3-stimulated luciferase inhibition, 23.5 h; series mostly up to 70.3 µM
From the text: U.S. Tox21 Program National Center for Advancing Translational Sciences [NCATS] NIH Chemical Genomics Center [NCGC] U.S. Environmental Protection Agency [EPA] National Institutes of Environmental Health Sciences [NIEHS] National Toxicology Program [NTP] U.S. Food and Drug Administration [FDA] Tox21 Assay Overview: Thyroid receptor (TR), a nuclear hormone receptor, plays an important role in development, proliferation, differentiation, metabolism, brain function, and cardiovascular system. […]
Results filed as inconclusive are left out. The source made the active and inactive calls. The call rests on the fitted dose curve; in most records, active means well fitted inhibition curve with a large enough effect in the repeat runs; inconclusive means weak or mixed curves; inactive means no such curve, though single readings can be large or run the other way.
Outcome (select one): active, inactive

[[record]]
line_notation = "CC(C)(CO)[C@@H](O)C(=O)NCCCC(=O)O"
assigned_label = "inactive"


*Q* Recorded test call requested for O=C(O)c1ccc(NC(=O)[C@H](Cc2ccc(O)cc2)NC(=O)c2ccccc2)cc1
*A* inactive

*Q* For COc1cc(/C=C/C(=O)N2CCN(CC(=O)N3CCCC3)CC2)cc(OC)c1OC , what call appears in the results of this test?
*A* inactive

*Q* Dear all, I need the recorded test outcome for Cc1ncc(COP(=O)(O)O)c(CN)c1O , thank you.
*A* inactive
